- Test system: Staphylococcus aureus
- Protocol Text: Antibacterial activity against erythromycin-susceptible Staphylococcus aureus ATCC 6538p by broth microdilution method
- Format: functional
Measured MIC values are reported for all entries that follow.
Value Type: MIC (µg/mL)

INSERT INTO results (compound, assayed_target, readout_number) VALUES
  ('CC[C@H]1OC(=O)[C@H](C)C(=O)[C@H](C)[C@@H](O[C@@H]2O[C@H](C)C[C@H](N(C)C)[C@H]2O)[C@](C)(OC)C[C@@H](C)C(=O)[C@H](C)[C@@H](O)C12C=NNC2C (stereo partly specified)', 'Staphylococcus aureus', 0.25),
  ('CCOC(=O)C1NN=CC12[C@H](O)[C@@H](C)C(=O)[C@H](C)C[C@@](C)(OC)[C@H](O[C@@H]1O[C@H](C)C[C@H](N(C)C)[C@H]1O)[C@@H](C)C(=O)[C@@H](C)C(=O)O[C@@H]2CC (stereo partly specified)', 'Staphylococcus aureus', 0.12),
  ('CC[C@H]1OC(=O)[C@H](C)[C@@H](O[C@H]2C[C@@](C)(OC)[C@@H](O)[C@H](C)O2)[C@H](C)[C@@H](O[C@@H]2O[C@H](C)C[C@H](N(C)C)[C@H]2O)[C@](C)(O)C[C@@H](C)C(=O)[C@H](C)[C@@H](O)[C@]1(C)O', 'Staphylococcus aureus', 0.5),
  ('CC[C@H]1OC(=O)[C@H](C)[C@@H](O[C@H]2C[C@@](C)(OC)[C@@H](O)[C@H](C)O2)[C@H](C)[C@@H](O[C@@H]2O[C@H](C)C[C@H](N(C)C)[C@H]2O)[C@](C)(OC)C[C@@H](C)C(=O)[C@H](C)[C@@H](O)[C@]1(C)O', 'Staphylococcus aureus', 0.5),
  ('CC[C@H]1OC(=O)[C@H](C)C(=O)[C@H](C)[C@@H](O[C@@H]2O[C@H](C)C[C@H](N(C)C)[C@H]2O)[C@](C)(OC)C[C@@H](C)C(=O)[C@H](C)[C@@H](O)C12C=NNC2C(=O)OC (stereo partly specified)', 'Staphylococcus aureus', 0.12),
  ('CC[C@H]1OC(=O)[C@H](C)C(=O)[C@H](C)[C@@H](O[C@@H]2O[C@H](C)C[C@H](N(C)C)[C@H]2O)[C@@](C)(OC)C[C@@H](C)C(=O)[C@H](C)[C@@H](O)C12C=NNC2 (stereo partly specified)', 'Staphylococcus aureus', 0.25);

###

- Tested on: Streptococcus pneumoniae
- Protocol Text: Antibacterial activity against erythromycin-resistant Streptococcus pneumoniae 5158 by broth microdilution method
- Type: functional
Measured MIC values are reported for all entries that follow.
Value Type: MIC

INSERT INTO measurements (compound, assayed_target, result) VALUES
  ('CC[C@H]1OC(=O)[C@H](C)C(=O)[C@H](C)[C@@H](O[C@@H]2O[C@H](C)C[C@H](N(C)C)[C@H]2O)[C@](C)(OC)C[C@@H](C)C(=O)[C@H](C)[C@@H](O)C12C=NNC2C(=O)OC (stereo partly specified)', 'Streptococcus pneumoniae', '8 µg/mL'),
  ('CC[C@H]1OC(=O)[C@H](C)[C@@H](O[C@H]2C[C@@](C)(OC)[C@@H](O)[C@H](C)O2)[C@H](C)[C@@H](O[C@@H]2O[C@H](C)C[C@H](N(C)C)[C@H]2O)[C@](C)(OC)C[C@@H](C)C(=O)[C@H](C)[C@@H](O)[C@]1(C)O', 'Streptococcus pneumoniae', '> 16 µg/mL'),
  ('CC[C@H]1OC(=O)[C@H](C)[C@@H](O[C@H]2C[C@@](C)(OC)[C@@H](O)[C@H](C)O2)[C@H](C)[C@@H](O[C@@H]2O[C@H](C)C[C@H](N(C)C)[C@H]2O)[C@](C)(O)C[C@@H](C)C(=O)[C@H](C)[C@@H](O)[C@]1(C)O', 'Streptococcus pneumoniae', '> 32 µg/mL'),
  ('CC[C@H]1OC(=O)[C@H](C)C(=O)[C@H](C)[C@@H](O[C@@H]2O[C@H](C)C[C@H](N(C)C)[C@H]2O)[C@@](C)(OC)C[C@@H](C)C(=O)[C@H](C)[C@@H](O)C12C=NNC2 (stereo partly specified)', 'Streptococcus pneumoniae', '> 64 µg/mL'),
  ('CC[C@H]1OC(=O)[C@H](C)C(=O)[C@H](C)[C@@H](O[C@@H]2O[C@H](C)C[C@H](N(C)C)[C@H]2O)[C@](C)(OC)C[C@@H](C)C(=O)[C@H](C)[C@@H](O)C12C=NNC2C (stereo partly specified)', 'Streptococcus pneumoniae', '> 64 µg/mL'),
  ('CCOC(=O)C1NN=CC12[C@H](O)[C@@H](C)C(=O)[C@H](C)C[C@@](C)(OC)[C@H](O[C@@H]1O[C@H](C)C[C@H](N(C)C)[C@H]1O)[C@@H](C)C(=O)[C@@H](C)C(=O)O[C@@H]2CC (stereo partly specified)', 'Streptococcus pneumoniae', '8 µg/mL');

Numbers sourced from ChEMBL document CHEMBL1629523.
